test system: PPARg DBDmut IVT, anti-PPARg (DBD mutation: PPARg1 K132A/R137A, NR concentration 270 nM); experiment: PBM binding z-score (relative to random genomic background probes); higher = stronger binding; sequences stand for … in GC…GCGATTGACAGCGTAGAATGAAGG
Assign true to entries whose PBM binding z-score meets or exceeds 0.8; assign false to the rest.

[ask] Decide: is the reported value of PBM binding z-score for `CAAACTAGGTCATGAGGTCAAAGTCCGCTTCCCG` equal to or greater than 0.8?
[reply] true

[ask] Here is the next sequence: `CCTTACGGGTCACTCCAGGTTATAGCATCGGAGT`
[reply] false

[ask] Here is the next sequence: `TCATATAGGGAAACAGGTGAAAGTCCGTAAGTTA`
[reply] true

[ask] Here is the next sequence: `TCATATAGGTAAATAGGTGAAAGTCCGTAAGTTA`
[reply] true

[ask] Here is the next sequence: `ATATGTTGGTTAAGGGTCATTCAGGTTGGTTCGC`
[reply] true

[ask] Here is the next sequence: `ATCTCTAGGTAACCACGTTCAGTGAATGCCGAAC`
[reply] true

[ask] Here is the next sequence: `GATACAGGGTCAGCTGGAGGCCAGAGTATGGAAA`
[reply] false

[ask] Here is the next sequence: `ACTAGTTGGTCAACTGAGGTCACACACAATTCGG`
[reply] false

[ask] Here is the next sequence: `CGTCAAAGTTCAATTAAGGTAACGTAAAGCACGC`
[reply] true

[ask] Here is the next sequence: `TCATATAGGTAAAAGGGGAAAGTCGGTGTGGTAA`
[reply] true

[ask] Here is the next sequence: `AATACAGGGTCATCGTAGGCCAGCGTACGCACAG`
[reply] true

[ask] Here is the next sequence: `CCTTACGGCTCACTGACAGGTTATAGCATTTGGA`
[reply] false

----------
test system: RARg homodimer (NR concentration 270 nM); assay: PBM binding z-score (relative to random genomic background probes); higher = stronger binding; sequences stand for … in GC…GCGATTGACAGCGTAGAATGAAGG
measurement_name: PBM binding z-score
Give the value as a plain number.

[ask] Give its PBM binding z-score value. Item: `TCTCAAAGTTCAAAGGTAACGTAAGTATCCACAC`
[reply] 6.25

[ask] Here is the next sequence: `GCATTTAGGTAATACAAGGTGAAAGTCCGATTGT`
[reply] 0.48

[ask] Here is the next sequence: `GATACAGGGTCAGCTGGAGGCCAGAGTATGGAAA`
[reply] 5.23

[ask] Here is the next sequence: `ATCTCTAGGTAAGACTCAGTTCACTGAAGAACGC`
[reply] 0.541

[ask] Here is the next sequence: `TATGCAGGGTCAAAGGCCAGAGTACGAATGTCGA`
[reply] 4.89

[ask] Here is the next sequence: `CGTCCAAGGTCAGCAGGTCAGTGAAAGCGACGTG`
[reply] 6.64

[ask] Here is the next sequence: `AGTCAAAGTTCATCTAGGAAACGTAAGATATGCT`
[reply] 6.42

[ask] Here is the next sequence: `ATACCAAGGTGATCGTGAGGTCGTGGATACTAAC`
[reply] 0.919

[ask] Here is the next sequence: `TCTAGCTGGCCAGAGGGTCACTCAAGAGGTACGG`
[reply] 1.43

[ask] Here is the next sequence: `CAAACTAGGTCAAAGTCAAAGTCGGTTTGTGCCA`
[reply] 4.41

[ask] Here is the next sequence: `ACTATTAGGTGAGACGAGGGCAACCGATAGGTTG`
[reply] 1.43

[ask] Here is the next sequence: `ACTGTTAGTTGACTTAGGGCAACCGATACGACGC`
[reply] 1.25

[ask] Here is the next sequence: `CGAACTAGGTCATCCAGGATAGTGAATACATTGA`
[reply] 4.37

[ask] Here is the next sequence: `TTACCAAGGTGAAGGTCGATGATCCCTCTGTAGA`
[reply] 1.39

[ask] Here is the next sequence: `CCTAGTTCGTCAGGAGGTCACACACCGGATATGA`
[reply] 4.42

[ask] Here is the next sequence: `ATCTCTAGGTAAGACTCAGTTCTGTGAAGAACGC`
[reply] 0.0813

[ask] Here is the next sequence: `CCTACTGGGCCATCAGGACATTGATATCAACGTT`
[reply] 0.554

[ask] Here is the next sequence: `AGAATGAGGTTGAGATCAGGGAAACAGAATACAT`
[reply] 0.477

[ask] Here is the next sequence: `CCAGACCGGTGAAAGGTAACTCAGTCTGGTACGC`
[reply] -0.096

[ask] Here is the next sequence: `TAGCCTAGGTCAGATCGGGCCAGTACACGCTATA`
[reply] 3.65

[ask] Here is the next sequence: `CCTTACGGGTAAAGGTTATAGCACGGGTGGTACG`
[reply] 1.06

[ask] Here is the next sequence: `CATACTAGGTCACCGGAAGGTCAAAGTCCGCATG`
[reply] 7.45

[ask] Here is the next sequence: `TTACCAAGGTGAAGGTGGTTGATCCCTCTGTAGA`
[reply] 0.431

[ask] Here is the next sequence: `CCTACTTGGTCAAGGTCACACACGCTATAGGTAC`
[reply] 4.86

[ask] Here is the next sequence: `AGAATGAGGTTAATATCAGGGAAACAGAATACAT`
[reply] 1.48

[ask] Here is the next sequence: `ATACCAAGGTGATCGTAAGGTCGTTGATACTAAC`
[reply] 0.817

[ask] Here is the next sequence: `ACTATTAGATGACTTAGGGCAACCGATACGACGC`
[reply] 1.25

[ask] Here is the next sequence: `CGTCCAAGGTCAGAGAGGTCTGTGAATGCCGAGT`
[reply] 5.25

[ask] Here is the next sequence: `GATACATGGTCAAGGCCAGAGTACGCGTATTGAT`
[reply] 0.985

[ask] Here is the next sequence: `AGAATGAGGTTAAGATCATGGAAACAGAATACAT`
[reply] 1.49

[ask] Here is the next sequence: `CAAACTAGGTCAAGTGGTCAAAGTCCGCTTCCCG`
[reply] 5.48

[ask] Here is the next sequence: `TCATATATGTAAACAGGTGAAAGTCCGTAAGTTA`
[reply] 0.376

[ask] Here is the next sequence: `CCAGACAGGTGTGAAGGTAACTCAGCCTCGATTA`
[reply] -0.122

[ask] Here is the next sequence: `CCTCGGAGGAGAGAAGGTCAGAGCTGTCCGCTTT`
[reply] 1.69

[ask] Here is the next sequence: `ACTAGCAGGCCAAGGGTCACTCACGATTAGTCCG`
[reply] 2.97

[ask] Here is the next sequence: `ATATGTAGGTTTCATCCGGGTCATTCAGGCTATG`
[reply] 0.901

[ask] Here is the next sequence: `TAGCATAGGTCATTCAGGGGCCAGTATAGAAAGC`
[reply] 5.09

[ask] Here is the next sequence: `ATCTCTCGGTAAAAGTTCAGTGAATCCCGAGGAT`
[reply] 2.03

[ask] Here is the next sequence: `ATCTCTAGGTAAAAGCTCAGTGAATCCCGAGGAT`
[reply] 0.135

[ask] Here is the next sequence: `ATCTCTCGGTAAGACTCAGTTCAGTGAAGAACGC`
[reply] 0.481

[ask] Here is the next sequence: `CCTAGTTGGTCAGGAGGTCACACTCCGGATATGA`
[reply] 4.43

[ask] Here is the next sequence: `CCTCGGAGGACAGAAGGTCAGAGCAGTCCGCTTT`
[reply] 3.41

[ask] Here is the next sequence: `TCGAGTAGTTTACCAATGGGGCATTCAGCTTTCT`
[reply] -0.51

[ask] Here is the next sequence: `TAGCCTAGGTCAGCTCGGGCCAGTATACGCTATA`
[reply] 4.25

[ask] Here is the next sequence: `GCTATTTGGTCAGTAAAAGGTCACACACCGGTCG`
[reply] 4.76

[ask] Here is the next sequence: `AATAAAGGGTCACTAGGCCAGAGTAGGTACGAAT`
[reply] 6.43

[ask] Here is the next sequence: `CCGACTGCGGCAGAAAGGTTACCATACCATCCGG`
[reply] 0.647

[ask] Here is the next sequence: `GCTCAGAGGACAAGGTCAGAGCTTTGTCCGTAGA`
[reply] 4.41

[ask] Here is the next sequence: `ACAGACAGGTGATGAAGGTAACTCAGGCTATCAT`
[reply] 0.521

[ask] Here is the next sequence: `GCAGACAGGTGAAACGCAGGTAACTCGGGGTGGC`
[reply] 0.131

[ask] Here is the next sequence: `TCTTGTAGATCAAAAGTTAAGAAAGCCGAAGCCT`
[reply] -0.147

----------
system: FXR:RXRa (NR concentration 270 nM, RXRa partner concentration 90 nM); assay: PBM binding z-score (relative to random genomic background probes); higher = stronger binding; sequences stand for … in GC…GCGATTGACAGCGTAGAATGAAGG
Could you please report measured PBM binding z-score for the items listed next?
Give the value as a plain number.

[ask] Give its PBM binding z-score value. Item: `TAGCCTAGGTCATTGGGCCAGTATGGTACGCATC`
[reply] 4.05

[ask] Here is the next sequence: `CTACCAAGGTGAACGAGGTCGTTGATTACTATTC`
[reply] 1.79

[ask] Here is the next sequence: `AGAATGAGGTTAAGATCGGGGAAACAGAATACAT`
[reply] 2.13

[ask] Here is the next sequence: `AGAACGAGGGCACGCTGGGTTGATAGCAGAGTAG`
[reply] 1.04

[ask] Here is the next sequence: `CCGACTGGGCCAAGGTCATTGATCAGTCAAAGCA`
[reply] 2.94

[ask] Here is the next sequence: `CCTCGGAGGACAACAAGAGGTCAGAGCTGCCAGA`
[reply] 2.12
